Origin of measurements: ChEMBL document CHEMBL3804786

System: Proteus mirabilis
Experiment: Antibacterial activity against Proteus mirabilis clinical isolate after 18 to 22 hrs by broth microdilution method
Type: functional
value.type: MIC

Observe how each entry below is paired with its result.
CC(C)=N/N=C1\SCC(=O)N1Cc1ccccc1Cl: > 256 µg/mL
O=C1CS/C(=N\N=C2CCCC2)N1Cc1ccc(Cl)cc1: > 256 µg/mL

Please turn your attention to the following entry.
Reported MIC for C/C(=N\N=C1/SCC(=O)N1Cc1cccc(F)c1)c1ccccn1 was > 256 µg/mL

----------
# MIC per entry
Tested on: Pichia kudriavzevii
Experiment: Antifungal activity against Candida krusei clinical isolate after 24 hrs by broth microdilution method
Type: functional
Give the value, in units of µg/mL, as a plain number.

Illustrative cases are given below, each with its answer.
C/C(=N\N=C1/SCC(=O)N1Cc1ccccc1F)c1cccs1: 4
C/C(=N\N=C1/SCC(=O)N1Cc1cccc([N+](=O)[O-])c1)c1cccs1: 2
Clc1ccccc1C(c1ccccc1)(c1ccccc1)n1ccnc1 [CLOTRIMAZOLE]: 2
C/C(=N\N=C1/SCC(=O)N1Cc1cccc(F)c1)c1cccs1: 2

According to the records, this compound O=C1CS/C(=N\N=C2CCCC2)N1Cc1ccccc1[N+](=O)[O-] displays MIC of 4
